B1: TPR t1 (parent)
chain: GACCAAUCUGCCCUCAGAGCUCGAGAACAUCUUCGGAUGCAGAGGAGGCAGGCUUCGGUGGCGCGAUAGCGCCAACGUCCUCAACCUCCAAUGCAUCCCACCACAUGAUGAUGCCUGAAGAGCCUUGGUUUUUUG

- Variants of: B1
- experimentalDetails: polymerase ribozyme fitness, log enrichment relative to wild type (log ratio); higher = more active; in vitro selection for triplet polymerase activity
Threshold rule: polymerase ribozyme fitness (log ratio) greater than or equal to -2 is met; below that, not met.

variantName	classAssignment
A5U C72A	met
G58C C102A G120A	not met
C11A C13G G36U C73A	not met
G44C C70A U96A	not met
U87C C94A	met
C8A A27G C56U C62U	met
C20U A43U C114G C123A	not met
G71C C88G	met
C40A C86U G110U U112C	not met
G52A G60C C70U U109A	not met
C20A G48A C49G G61A U87G A90C	not met
C56U A74C A91G	met
C56A G69U A119G	met
U7C C13U G60A A105U	met
A6U C13A U21C	met
A18C C72A	not met
G19C C40U G93U C114G G122A	met
